Molecular target: T1, recombinant human 4R0N tau (human, UniProt P10636 2-758)
T1 construct: also called recombinant 4R0N human tau; P10636-6
T1 sequence (P10636 other isoform, or with tags, fused parts or gaps limits assumed): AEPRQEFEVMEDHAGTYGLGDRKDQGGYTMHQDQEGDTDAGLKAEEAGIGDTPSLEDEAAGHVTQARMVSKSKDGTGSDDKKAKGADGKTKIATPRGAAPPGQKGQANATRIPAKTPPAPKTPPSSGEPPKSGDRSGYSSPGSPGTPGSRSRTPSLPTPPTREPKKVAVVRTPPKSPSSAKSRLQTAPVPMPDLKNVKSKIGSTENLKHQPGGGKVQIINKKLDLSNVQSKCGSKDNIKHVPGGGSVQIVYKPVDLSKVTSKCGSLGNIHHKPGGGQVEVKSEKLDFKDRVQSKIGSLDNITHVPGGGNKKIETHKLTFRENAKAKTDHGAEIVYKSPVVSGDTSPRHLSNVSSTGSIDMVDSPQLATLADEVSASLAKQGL
Assay: SPR Biacore T200; antibody captured by anti-human Fc; tau as analyte; global 1:1 fit
Criterion: Kd strictly under 0.4 nM. Met: Criterion met. Not met: Criterion not met.

Example entries begin here.
Prompt line: Lab note: confirm whether the reported Kd for this binder is below 0.4 nM, equality not counting. binder: hu9F5VHv10/hu9F5VLv9_DIM19 (antibody, V domains shown) VH: EVQLVQSGAEVKKPGATVKISCKASGFNIKDDYMNWVKQRPEKGLEWIGWIDPENGDTEYASKFQGRATMTADTSTNTAYMELSSLRSEDTAVYYCTTSNGWGQGTLVTVSS VL: DIQMTQSPFSLPVTPGESASISCRSSKSLSHSNGITYLYWYIQKPGQSPQLLIYQISNRASGVPDRFSSSGSGTDFTLKISRVEAEDVGVYYCAQNIELPLTFGQGTKLEIK
Response line: Criterion not met

Prompt line: Lab note: confirm whether the reported Kd for this binder is below 0.4 nM, equality not counting. binder: hu9F5VHv9/hu9F5VLv8_DIM17 (antibody, V domains shown) VH: EVQLVQSGAEVKKPGATVKISCKASGFNIKDDYMNWVQQRPGKGLEWIGWIDPENGDTEYASKFQGRATMTADTSTNTAYMELSSLRSEDTAVYYCTTSNGWGQGTLVTVSS VL: DIQMTQSPFSLPVTPGESASISCRSSKSLSHSNGITYLYWYGQKPGQSPQLLIYQGSNTASGVPNRFSSSGSGTDFTLKISRVEAEDVGVYYCAQNIELPLTFGQGTKLEIK
Response line: Criterion met

Prompt line: Lab note: confirm whether the reported Kd for this binder is below 0.4 nM, equality not counting. binder: hu9F5VHv9/hu9F5VLv8_DIM9 (antibody, V domains shown) VH: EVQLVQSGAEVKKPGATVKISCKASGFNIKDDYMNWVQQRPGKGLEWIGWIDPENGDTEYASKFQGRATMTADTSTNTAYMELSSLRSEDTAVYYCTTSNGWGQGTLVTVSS VL: DIQMTQSPFSLPVTPGESASISCRSSKSLGHSNGITYLYWYQQKPGQSPQLLIYQKSNGASGVPNRFSSSGSGTDFTLKISRVEAEDVGVYYCAQNIELPLTFGQGTKLEIK
Response line: Criterion not met

Here's the next entry for you.
Prompt line: Lab note: confirm whether the reported Kd for this binder is below 0.4 nM, equality not counting. binder: hu9F5VHv9/hu9F5VLv8_DIM30 (antibody, V domains shown) VH: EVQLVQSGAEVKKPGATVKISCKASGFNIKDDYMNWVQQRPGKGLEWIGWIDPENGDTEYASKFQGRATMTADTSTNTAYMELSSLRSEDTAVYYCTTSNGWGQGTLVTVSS VL: DIQMTQSPFSLPVTPGESASISCRSSKSLSHSNGITYLYWYQQKPGQSPQLLIYQGSNLASGVPNRFSSSGSGTDFTLKISRVEAEDVGVYYCAQNIELPLTFGQGTKLEIK
Response line: Criterion not met

Where do the numbers come from? From patent US20220275067A1.
